Tested target: ATR kinase (full-length ATR) (Homo sapiens, UniProt Q13535)
Construct: Assays were carried out at 25° C. in the presence of 5 nM full-length ATR
Sequence (Q13535 whole entry): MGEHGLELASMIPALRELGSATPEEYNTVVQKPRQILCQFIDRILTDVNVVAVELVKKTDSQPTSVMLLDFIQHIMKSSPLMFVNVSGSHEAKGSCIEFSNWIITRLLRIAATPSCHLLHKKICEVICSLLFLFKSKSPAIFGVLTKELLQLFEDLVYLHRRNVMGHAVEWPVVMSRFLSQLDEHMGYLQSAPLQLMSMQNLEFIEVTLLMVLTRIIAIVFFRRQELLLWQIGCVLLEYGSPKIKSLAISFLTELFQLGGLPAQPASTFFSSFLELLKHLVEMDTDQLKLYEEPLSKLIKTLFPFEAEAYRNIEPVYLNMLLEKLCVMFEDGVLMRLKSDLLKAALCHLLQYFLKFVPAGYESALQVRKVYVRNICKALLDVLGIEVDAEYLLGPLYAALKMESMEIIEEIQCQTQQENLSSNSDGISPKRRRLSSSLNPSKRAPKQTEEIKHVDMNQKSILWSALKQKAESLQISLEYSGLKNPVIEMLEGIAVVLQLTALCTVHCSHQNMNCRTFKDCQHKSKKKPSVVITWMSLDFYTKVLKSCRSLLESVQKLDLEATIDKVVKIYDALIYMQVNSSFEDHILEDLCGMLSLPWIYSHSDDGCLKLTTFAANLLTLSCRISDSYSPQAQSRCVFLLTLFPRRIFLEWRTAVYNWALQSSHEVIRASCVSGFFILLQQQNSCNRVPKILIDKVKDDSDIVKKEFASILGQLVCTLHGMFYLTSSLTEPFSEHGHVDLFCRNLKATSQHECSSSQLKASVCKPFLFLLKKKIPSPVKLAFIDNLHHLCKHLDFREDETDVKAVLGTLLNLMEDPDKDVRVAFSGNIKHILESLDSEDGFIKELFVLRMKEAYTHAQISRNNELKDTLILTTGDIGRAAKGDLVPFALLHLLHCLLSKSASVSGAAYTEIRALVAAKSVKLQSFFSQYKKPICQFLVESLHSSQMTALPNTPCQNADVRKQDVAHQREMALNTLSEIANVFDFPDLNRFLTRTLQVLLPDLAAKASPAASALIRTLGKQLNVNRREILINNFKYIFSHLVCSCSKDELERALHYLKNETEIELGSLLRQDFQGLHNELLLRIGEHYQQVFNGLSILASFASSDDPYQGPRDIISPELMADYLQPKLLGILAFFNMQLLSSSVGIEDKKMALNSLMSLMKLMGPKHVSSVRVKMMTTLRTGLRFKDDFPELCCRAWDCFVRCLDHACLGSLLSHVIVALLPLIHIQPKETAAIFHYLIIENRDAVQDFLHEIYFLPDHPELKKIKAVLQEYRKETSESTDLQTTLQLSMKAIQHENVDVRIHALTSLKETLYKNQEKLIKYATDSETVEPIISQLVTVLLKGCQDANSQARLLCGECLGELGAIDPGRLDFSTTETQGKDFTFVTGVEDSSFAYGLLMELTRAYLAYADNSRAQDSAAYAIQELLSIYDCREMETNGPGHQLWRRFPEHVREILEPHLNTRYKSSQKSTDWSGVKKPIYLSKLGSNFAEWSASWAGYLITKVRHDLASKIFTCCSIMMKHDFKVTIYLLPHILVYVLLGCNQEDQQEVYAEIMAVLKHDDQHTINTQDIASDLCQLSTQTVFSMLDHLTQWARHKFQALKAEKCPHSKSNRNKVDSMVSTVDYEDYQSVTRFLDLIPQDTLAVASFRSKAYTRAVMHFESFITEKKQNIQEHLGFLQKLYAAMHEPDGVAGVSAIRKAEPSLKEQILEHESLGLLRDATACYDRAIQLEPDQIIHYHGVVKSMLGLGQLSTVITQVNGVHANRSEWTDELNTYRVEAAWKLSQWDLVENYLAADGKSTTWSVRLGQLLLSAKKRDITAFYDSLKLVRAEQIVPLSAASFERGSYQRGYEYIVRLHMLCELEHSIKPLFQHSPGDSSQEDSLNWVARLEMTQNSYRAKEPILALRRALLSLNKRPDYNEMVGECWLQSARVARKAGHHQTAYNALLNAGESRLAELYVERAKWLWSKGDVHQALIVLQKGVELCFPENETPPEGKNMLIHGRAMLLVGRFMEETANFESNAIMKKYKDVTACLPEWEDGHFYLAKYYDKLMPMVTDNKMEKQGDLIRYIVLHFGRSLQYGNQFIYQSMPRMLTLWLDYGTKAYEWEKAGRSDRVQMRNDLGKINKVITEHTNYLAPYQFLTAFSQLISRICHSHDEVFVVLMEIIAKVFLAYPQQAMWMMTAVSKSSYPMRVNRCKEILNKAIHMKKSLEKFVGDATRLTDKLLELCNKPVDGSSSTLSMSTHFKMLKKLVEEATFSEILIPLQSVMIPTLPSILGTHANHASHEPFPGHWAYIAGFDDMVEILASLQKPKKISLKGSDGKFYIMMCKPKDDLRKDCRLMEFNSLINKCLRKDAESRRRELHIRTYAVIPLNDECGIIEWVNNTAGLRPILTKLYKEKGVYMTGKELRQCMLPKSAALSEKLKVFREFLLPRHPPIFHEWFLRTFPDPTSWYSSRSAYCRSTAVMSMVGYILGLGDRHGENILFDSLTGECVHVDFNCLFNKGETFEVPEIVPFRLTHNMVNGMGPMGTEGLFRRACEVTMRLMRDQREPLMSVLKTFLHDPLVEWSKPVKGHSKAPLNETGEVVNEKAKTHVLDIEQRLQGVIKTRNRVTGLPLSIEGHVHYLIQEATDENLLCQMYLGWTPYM
Protocol description: ATR Inhibition Assay (radioactive-phosphate incorporation)
Format: biochemical
Settings: Ki(app); 5 nM full-length ATR, 10 μM ATP, 800 μM target peptide, 25° C.; class symbols; read-out: ATR Inhibition Ki
pKi: −log10 of the molar value.
Below, each entry is listed with its recorded pKi.

Compound	Observed property	Recorded measurement
COC[C@H](C)NC(=O)c1c[nH]c2ncc(-c3ccc(S(=O)(=O)C(C)C)cc3)nc12 [Compound I-110]	pKi	6.30 to 7.00
CC(C)S(=O)(=O)c1ccc(-c2cnc3[nH]cc(C(=O)Nc4ccccc4C#N)c3n2)cc1 [Compound I-41]	pKi	> 7.00
CC(C)S(=O)(=O)c1ccc(-c2cnc3[nH]cc(C(=O)NC4CCOCC4)c3n2)cc1 [Compound I-104]	pKi	5.30 to 6.30
CC(O)c1cccc(NC(=O)c2c[nH]c3ncc(-c4ccc(S(=O)(=O)C(C)C)cc4)nc23)c1 (stereo not drawn) [Compound I-34]	pKi	6.30 to 7.00
CC(C)S(=O)(=O)c1ccc(-c2cnc3[nH]cc(C(=O)NCc4cccnc4)c3n2)cc1 [Compound I-59]	pKi	6.30 to 7.00

Per the records, this compound ( CC(C)S(=O)(=O)c1ccc(-c2cnc3[nH]cc(C(=O)Nc4ccccc4CCO)c3n2)cc1 [Compound I-50] ) has pKi equal to 6.30 to 7.00

Per the records, this compound ( CC(C)S(=O)(=O)c1ccc(-c2cnc3[nH]cc(C(=O)NC(CO)c4ccccc4)c3n2)cc1 (stereo not drawn) [Compound I-42] ) has pKi equal to > 7.00
